Cited source for all entries: PubChem BioAssay AID2060499

- System: 777334-354-R2-J4-PDC tumor spheroids with HUVEC/MSC, viability;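 note: spheroids exposed to compounds for 7 days before readout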
- Method Summary: Anticancer human tumor 777334-354-R2-J4-PDC patient-derived pancreatic adenocarcinoma cell line growth inhibition [GQUAD]
- Test Settings: second compound 1 µM; first compound 0.0316 µM; stronger effect = lower value
The threshold is 80%. Values of viability, T/C beneath it are tagged yes; values meeting or exceeding it are tagged no.

INSERT INTO assay_data (compound, assigned_class) VALUES
  ('CC(C)(O)C1CCC(Nc2ccc3ncc(-c4cccc(C(F)(F)F)c4)n3n2)CC1 (stereo unspecified) + Cc1[nH]c2ccc(F)cc2c1-c1nc2c3cccnc3c3ncccc3c2[nH]1', 'no');

Does the reported viability, T/C of COc1cccc2c1C(=O)c1c(O)c3c(c(O)c1C2=O)CC(O)(C(=O)CO)CC3OC1CC(N)C(O)C(C)O1 (stereo unspecified) + CN(C)c1ccc(Nc2c3ccc(NC(=O)CCN4CCCC4)cc3nc3cc(NC(=O)CCN4CCCC4)ccc23)cc1 stay below 80%? no

Does the reported viability, T/C of CC(C)(O)C1CCC(Nc2ccc3ncc(-c4cccc(C(F)(F)F)c4)n3n2)CC1 (stereo unspecified) + Cc1cnc(CNC(=O)c2c(=O)c3ccc(N4CCCN(C)CC4)nc3n3c2sc2ccccc23)cn1 stay below 80%? yes

Does the reported viability, T/C of C=CCn1c(=O)c2cnc(Nc3ccc(N4CCN(C)CC4)cc3)nc2n1-c1cccc(C(C)(C)O)n1 + CN(C)c1ccc(Nc2c3ccc(NC(=O)CCN4CCCC4)cc3nc3cc(NC(=O)CCN4CCCC4)ccc23)cc1 stay below 80%? no

Does the reported viability, T/C of Cn1ncnc1[C@H]1c2n[nH]c(=O)c3cc(F)cc(c23)N[C@@H]1c1ccc(F)cc1 + Cc1cnc(CNC(=O)c2c(=O)c3ccc(N4CCCN(C)CC4)nc3n3c2sc2ccccc23)cn1 stay below 80%? yes

Does the reported viability, T/C of CCCS(=O)(=O)Nc1ccc(F)c(C(=O)c2c[nH]c3ncc(-c4ccc(Cl)cc4)cc23)c1F + Cc1cnc(CNC(=O)c2c(=O)c3ccc(N4CCCN(C)CC4)nc3n3c2sc2ccccc23)cn1 stay below 80%? yes
